- targetSystem: UniProtKB P14600
- Sequence (P14600 whole entry): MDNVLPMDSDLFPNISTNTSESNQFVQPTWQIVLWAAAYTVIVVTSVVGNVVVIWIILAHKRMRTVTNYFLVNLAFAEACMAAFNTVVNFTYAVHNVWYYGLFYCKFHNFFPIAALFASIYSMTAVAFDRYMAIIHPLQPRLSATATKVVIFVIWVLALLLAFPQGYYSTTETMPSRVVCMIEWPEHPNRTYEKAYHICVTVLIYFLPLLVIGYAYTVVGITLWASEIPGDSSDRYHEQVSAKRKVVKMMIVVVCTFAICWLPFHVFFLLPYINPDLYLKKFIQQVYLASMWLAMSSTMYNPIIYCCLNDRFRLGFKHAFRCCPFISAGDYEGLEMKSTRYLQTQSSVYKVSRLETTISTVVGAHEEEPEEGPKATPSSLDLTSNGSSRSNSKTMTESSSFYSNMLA
measurementKind: IC50 (nM)

# inputSmiles, targetSystem, measurementKind, readoutNumber
records = [
    ("C[C@@H](NC(=O)[C@@H](N)Cc1ccc(O)cc1)C(=O)NCC(=O)N[C@@H](Cc1ccccc1)C(=O)NN=Cc1cc(C(F)(F)F)cc(C(F)(F)F)c1", "UniProtKB P14600", "IC50", 4.2),
]
